Target: T1, human recombinant HLA-B*08:01 and b2m (human)
T1 construct: expressed in E. coli and purified; stability of the peptide-MHC complex read as b2m associated with the heavy chain over time at 37 C
Test: pMHC dissociation assay at 37 C; mean half-life grade
Description: Peptide-MHC stability assays for HLA-B*08:01 peptides were performed. The data were obtained using a proximity based, homogenous, real-time assay in order to measure the dissociation of peptides from HLA class I molecules. […] Then, the stability of a peptide-MHC complex (pMHC) was determined by measuring the amount of b2m associated with the MHC heavy chain over time at 37° C. […]
observation.type: mean half-life (T1/2) of peptide-MHC complex

Recorded results for 7 binders are shown here.
binder | assay.value
VGREKKLAL | 4 to 6 h
DMKKAKEQL | 2 to 4 h
LPRLKAFMI | 4 to 6 h
TSMPRSSAM | 6 to 10 h
FAFRKEAL | 4 to 6 h
QAKTHSTL | 2 to 4 h
VLKHKLDEL | 2 to 4 h

// switching to the query binder
Sample MAAVKQAL — what was its mean half-life (T1/2) of peptide-MHC complex? 4 to 6 h
